- assay.summary: CCTE_Simmons_CellTiterGLO_HEK293T: Viability Assessment in CCTE's Assays for Thyroperoxidase (TPO) Inhibition, Simmons Lab (AID 2283665)
Inconclusive results are not listed. Active and inactive are the calls of the source. The calls were made as follows: active = hit-call score of the fitted dose curve at least 0.9, where 1 is the maximum; inconclusive = response in the unintended direction; inactive = score below 0.9.
Pick from Y (active), N (inactive) when you respond.

compound	class.label
Clc1ccc(COC(Cn2ccnc2)c2ccc(Cl)cc2Cl)cc1 (centres undefined)	Y
COP(=O)(OC)O/C(=C\Cl)c1cc(Cl)c(Cl)cc1Cl	Y

Ask: Test call, this compound: Cc1ccccc1N
Result: N

Ask: Test call, this compound: CCCCCCCCSC(=O)Oc1cc(Cl)nnc1-c1ccccc1
Result: N

Ask: Test call, this compound: Clc1ccc(C2(Cn3cncn3)CC(Br)CO2)c(Cl)c1 (centres undefined)
Result: Y

Ask: Test call, this compound: CC(C)c1cccc(C(C)C)c1O
Result: Y

Ask: Test call, this compound: CC(C)(c1ccc(OCC2CO2)cc1)c1ccc(OCC2CO2)cc1 (centres undefined)
Result: Y

----------
- assay.summary: ATG_ERE_CIS: Attagene CIS-FACTORIAL HepG2 Assay for Estrogen Response Element (ERE) (AID 2282940)
- experimental.parameters: HepG2 ERE cis-reporter, Attagene RNA transcript; actives raise or lower the signal
Calls of active or inactive are those of the source. Rule for the calls: active = hit-call score of the fitted dose curve at least 0.9, where 1 is the maximum; inactive = score below 0.9.
Pick from class 1 = active, class 0 = inactive when you respond.

Example entries and their recorded answers appear below.
compound	class.label
CCOC(=O)/C=C(C)/C=C/C[C@@H](C)CCCC(C)C	class 0
O=C(Cc1ccccc1)c1ccccc1	class 1
OCC(O)CCl (configuration not stated)	class 0

Ask: Test call, this compound: O=C1CCCN1
Result: class 0

Ask: Test call, this compound: NC(=O)O
Result: class 0

Ask: Test call, this compound: N#CCc1ccc(Cl)cc1
Result: class 0

----------
- assay.summary: ATG_CMV_CIS: Attagene CIS-FACTORIAL HepG2 Assay for human CMV (Internal Marker) (AID 2282928);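 also: endpoint acts as a background internal control marker rather than a target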
- experimental.parameters: HepG2 CMV promoter reporter, transcription factor profiling; actives raise or lower the signal
Active and inactive are the calls of the source. Rule for the calls: active = hit-call score of the fitted dose curve at least 0.9, where 1 is the maximum; inactive = score below 0.9.
Pick from active, inactive when you respond.

Example entries and their recorded answers appear below.
molecule	class.label
C[C@H]1CCCC(=O)CCC/C=C/c2cc(O)cc(O)c2C(=O)O1	active
ClCCBr	inactive
Cc1ccccc1C(=O)Nc1cccc(OC(C)C)c1	active
Cc1ccc(N)cc1Cl	inactive
COc1ccc(OC)c(C=O)c1	inactive

Ask: Test call, this molecule: CC(Br)C(=O)O (configuration not stated)
Result: inactive

Ask: Test call, this molecule: N#CN=C(N)N
Result: inactive

Ask: Test call, this molecule: COC(=O)Cc1ccccc1
Result: inactive

Ask: Test call, this molecule: COP(=O)(OC)OC
Result: inactive

Ask: Test call, this molecule: O=Cc1cccc(Oc2ccccc2)c1
Result: inactive

Ask: Test call, this molecule: N#CCCO
Result: inactive

Ask: Test call, this molecule: CCOP(=S)(OCC)SCSP(=S)(OCC)OCC
Result: inactive

Ask: Test call, this molecule: CCOP(OCC)OCC
Result: inactive

Ask: Test call, this molecule: CCOP(=S)(OCC)Oc1ccc(S(C)=O)cc1 (configuration not stated)
Result: inactive

Ask: Test call, this molecule: C[C@]12CC[C@H](O)CC1=CC[C@@H]1[C@@H]2CC[C@]2(C)C(=O)CC[C@@H]12
Result: active

Ask: Test call, this molecule: OCc1ccco1
Result: inactive

Ask: Test call, this molecule: CCN1CCC2(CC1)COc1cc3c(cc12)N(C(=O)c1ccc(-c2ccc(-c4nnc(C)o4)cc2C)cc1)CC3
Result: active

Ask: Test call, this molecule: c1ccc(N=NNc2ccccc2)cc1
Result: inactive

Ask: Test call, this molecule: CCCCCCCCC(=O)NCc1ccc(O)c(OC)c1
Result: inactive

Ask: Test call, this molecule: CC(C)c1ccc(CO)cc1
Result: inactive

Ask: Test call, this molecule: BrCCBr
Result: inactive
